assay: Size and polydispersity index PDI of lipid nanoparticles (Malvern Zetasizer Nano ZS); type: physicochemical; conditions: LNP ionizable lipid/DOPE/cholesterol/DSPE-PEG2000 35/16/46.5/2.5 mol% encapsulating EGFP mRNA
metric: PDI

Value of measured PDI for the entry CCCCCCCCCCCCCCCCC(O)CN(CCN1CCN(CCN(CCN(CC(O)CCCCCCCCCCCCCCCC)CC(O)CCCCCCCCCCCCCCCC)CCN(CC(O)CCCCCCCCCCCCCCCC)CC(O)CCCCCCCCCCCCCCCC)CC1)CC(O)CCCCCCCCCCCCCCCC (stereo not drawn) : 0.144

Value of measured PDI for the entry CCCCCCCCCCCCC(O)CN(CCOCCN(CCOCCN(CC(O)CCCCCCCCCCCC)CC(O)CCCCCCCCCCCC)CCN1CCN(C)CC1)CC(O)CCCCCCCCCCCC (stereo not drawn) : 0.131

Value of measured PDI for the entry CCCCCCCCCCC(O)CN(CCOCCOCCOCCN(CCOCCOCCOCCN(CC(O)CCCCCCCCCC)CC(O)CCCCCCCCCC)CCN1CCN(C)CC1)CC(O)CCCCCCCCCC (stereo not drawn) : 0.136

* * *

Experiment: Size and polydispersity index PDI of lipid nanoparticles (Malvern Zetasizer Nano ZS)
Format: physicochemical
Settings: LNP ionizable lipid/DOPE/cholesterol/DSPE-PEG2000 35/16/46.5/2.5 mol% encapsulating EGFP mRNA; in nm (unit assumed)
Protocol: The ionizable lipid compound of Example 1 was dissolved in ethanol with DOPE, cholesterol and DSPE-PEG2000 (all purchased from AVT (Shanghai) Pharmaceutical Technology Co., Ltd.) at a molar ratio of 35:16:46.5:2.5 to prepare ethanol lipid solution, and enhanced green fluorescent protein (EGFP) mRNAs (Shanghai Maximna Pharmaceutical Engineering Co., Ltd., JN-4201) were diluted in 20 mM citrate buffer (pH=6.1) to obtain mRNA aqueous solution. […]
For each of the compounds below, state its Particle Size.

Value of measured Particle Size for the entry CCCCCCCCCCCCC(O)CN(CCOCCOCCN(CCOCCOCCN(CC(O)CCCCCCCCCCCC)CC(O)CCCCCCCCCCCC)CCN1CCN(C)CC1)CC(O)CCCCCCCCCCCC (stereo not drawn) : 86.4

Value of measured Particle Size for the entry CCCCCCCCCCCCC(O)CN(CCN(CCN1CCN(C)CC1)CCN(CC(O)CCCCCCCCCCCC)CC(O)CCCCCCCCCCCC)CC(O)CCCCCCCCCCCC (stereo not drawn) : 85.2

Value of measured Particle Size for the entry CCCCCCCCCCCCCCC(O)CN(CCOCCOCCOCCN(CCOCCOCCOCCN(CC(O)CCCCCCCCCCCCCC)CC(O)CCCCCCCCCCCCCC)CCN1CCN(C)CC1)CC(O)CCCCCCCCCCCCCC (stereo not drawn) : 95.5

* * *

For each of the compounds below, state its Particle Size.
assay: Size and polydispersity index PDI of lipid nanoparticles (Malvern Zetasizer Nano ZS); type: physicochemical; settings: LNP ionizable lipid/DOPE/cholesterol/DSPE-PEG2000 35/16/46.5/2.5 mol% encapsulating EGFP mRNA; in nm (unit assumed)
Form: value (number only, do not type unit).

Value of measured Particle Size for the entry CCCCCCCCCCCCCCC(O)CN(CCOCCN(CCOCCN(CC(O)CCCCCCCCCCCCCC)CC(O)CCCCCCCCCCCCCC)CCN1CCN(CCO)CC1)CC(O)CCCCCCCCCCCCCC (stereo not drawn) [J-C16] : 104.1

Value of measured Particle Size for the entry CCCCCCCCCCC(O)CN(CCOCCOCCN(CCOCCOCCN(CC(O)CCCCCCCCCC)CC(O)CCCCCCCCCC)CCN1CCN(CCO)CC1)CC(O)CCCCCCCCCC (stereo not drawn) [K-C12] : 75.9

Value of measured Particle Size for the entry CCCCCCCCCCCCC(O)CN(CCOCCN(CCOCCN(CC(O)CCCCCCCCCCCC)CC(O)CCCCCCCCCCCC)CCN1CCN(C)CC1)CC(O)CCCCCCCCCCCC (stereo not drawn) [F-C14] : 82.4

Value of measured Particle Size for the entry CCCCCCCCCCC(O)CN(CCOCCN(CCOCCN(CC(O)CCCCCCCCCC)CC(O)CCCCCCCCCC)CCN1CCN(CCO)CC1)CC(O)CCCCCCCCCC (stereo not drawn) [J-C12] : 99.7

Value of measured Particle Size for the entry CCCCCCCCCCCCCCC(O)CN(CCOCCOCCOCCN(CCOCCOCCOCCN(CC(O)CCCCCCCCCCCCCC)CC(O)CCCCCCCCCCCCCC)CCN1CCN(CCOCCOCCOCCN(CC(O)CCCCCCCCCCCCCC)CC(O)CCCCCCCCCCCCCC)CC1)CC(O)CCCCCCCCCCCCCC [D-C16] : 91.6

Value of measured Particle Size for the entry CCCCCCCCCCC(O)CN(CCOCCOCCOCCN(CCOCCOCCOCCN(CC(O)CCCCCCCCCC)CC(O)CCCCCCCCCC)CCN1CCN(CCO)CC1)CC(O)CCCCCCCCCC [L-C12] : 88.4

Value of measured Particle Size for the entry CCCCCCCCCCCCCCCCC(O)CN(CCN1CCN(CCN(CCN(CC(O)CCCCCCCCCCCCCCCC)CC(O)CCCCCCCCCCCCCCCC)CCN(CC(O)CCCCCCCCCCCCCCCC)CC(O)CCCCCCCCCCCCCCCC)CC1)CC(O)CCCCCCCCCCCCCCCC (stereo not drawn) [A-C18] : 96.9

Value of measured Particle Size for the entry CCCCCCCCCCC(O)CN(CCN(CCN1CCN(C)CC1)CCN(CC(O)CCCCCCCCCC)CC(O)CCCCCCCCCC)CC(O)CCCCCCCCCC (stereo not drawn) [E-C12] : 96.9

Value of measured Particle Size for the entry CCCCCCCCCCCCCCCCC(O)CN(CCOCCOCCN(CCOCCOCCN(CC(O)CCCCCCCCCCCCCCCC)CC(O)CCCCCCCCCCCCCCCC)CCN1CCN(CCO)CC1)CC(O)CCCCCCCCCCCCCCCC (stereo not drawn) [K-C18] : 124.2
